- Experimental System: RORγ (Homo sapiens, UniProt P51449)
- Sequence (P51449 whole entry, looked up, the tested form may be a part): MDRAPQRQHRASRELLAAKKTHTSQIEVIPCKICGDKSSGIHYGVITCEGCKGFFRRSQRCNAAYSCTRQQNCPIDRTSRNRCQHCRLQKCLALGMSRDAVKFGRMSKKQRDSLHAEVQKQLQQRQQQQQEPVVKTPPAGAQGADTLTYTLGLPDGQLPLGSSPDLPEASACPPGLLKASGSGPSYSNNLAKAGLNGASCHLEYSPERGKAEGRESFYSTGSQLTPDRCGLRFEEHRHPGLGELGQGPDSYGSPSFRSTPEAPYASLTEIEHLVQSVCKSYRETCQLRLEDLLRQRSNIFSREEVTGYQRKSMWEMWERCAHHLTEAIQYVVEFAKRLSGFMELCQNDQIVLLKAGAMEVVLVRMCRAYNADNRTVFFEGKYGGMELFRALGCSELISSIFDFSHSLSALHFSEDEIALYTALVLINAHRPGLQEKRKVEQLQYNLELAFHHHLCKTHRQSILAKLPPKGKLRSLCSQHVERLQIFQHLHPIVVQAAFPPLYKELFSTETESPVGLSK
- Protocol Notes: RORγ Gal4 Reporter Gene Assay
- Assay type: cell-based
For each record, write down the corresponding pIC50 (REN).

Example entries begin here.
CC(C)(C)NS(=O)(=O)c1ccc(-c2oc(C(=O)NCC3(O)CCOCC3)nc2CC2CCCCC2)c2ccccc12 [100/5]: 6.3/8.1/8.2
CC(C)(C)c1cc(-c2nc(C(N)=O)sc2CC2CCCCC2)cc(C(C)(C)C)c1 [Example 1]: 6.5/5.8/5.8
CN1CCN(C(=O)c2nc(CC3CCCCC3)c(-c3ccc(S(=O)(=O)NC(C)(C)C)c4ccccc34)s2)CC1 [6/53]: 6.6/7.1/7.4

Consider now this further compound.
Request: Observed pIC50 (REN) on RORγ (Homo sapiens, UniProt P51449) for CC(C)(O)c1cc(-c2sc(C(=O)N[C@H]3C[C@@H](C(=O)O)C3)nc2CC2CCCCC2)cc(C2(C)CC2)c1 [9/10] , please.
Result: 6.3/7.2/7.2

====

- Experimental System: RORγ (Homo sapiens, UniProt P51449)
- Protocol Notes: RORγ Gal4 Reporter Gene Assay
- Assay type: cell-based
Result Type: pIC50 (REN)

CC(C)(O)CNC(=O)c1nc(CC2CCCCC2)c(-c2ccc(S(=O)(=O)NC(C)(C)C)c3ccccc23)o1: 6.6/7.7/7.9
CC(C)(C)NS(=O)(=O)c1ccc(-c2oc(C(=O)N[C@H]3C[C@H](C(=O)O)C3)nc2CC2CCCCC2)c2ccccc12: 6.1/7.0/7.1
CC(C)(C)NS(=O)(=O)c1ccc(-c2sc(C(=O)NC3CCS(=O)(=O)CC3)nc2Cc2ccccc2)c2ccccc12: 7.1/8.2/8.4
CC(C)(C)NS(=O)(=O)c1ccc(-c2sc(C(=O)NCCC(C)(C)C(=O)O)nc2CC2CCCCC2)cc1C(C)(C)C: 6.1/6.8/6.9
Cc1c(C(=O)NC(C)(C)C)cc(-c2sc(C(=O)N[C@H]3C[C@H](C(=O)O)C3)nc2CC2CCCCC2)cc1C1(C)CC1: 5.8/6.8/6.8
CC(C)(C)NS(=O)(=O)c1ccc(-c2oc(C(=O)NC3CCS(=O)(=O)CC3)nc2CC2CCCCC2)c(Cl)c1Cl: 6.6/8.4/8.2
CC(C)(C)c1cc(-c2nc(C(=O)NC3COC3)ncc2CC2CCCCC2)cc(C(C)(C)C)c1: 5.4/6.4/6.5
CC(C)(C)NS(=O)(=O)c1ccc(-c2sc(C(=O)N[C@H]3C[C@H](C(=O)O)C3)nc2CC2CCCCC2)cc1C(F)(F)F: 6.9/8.0/8.0

Request: API: value(readout=pIC50 (REN), system=RORγ (Homo sapiens, UniProt P51449)) for record CC(O)c1c(S(=O)(=O)NC(C)(C)C)ccc(-c2sc(C(=O)N3CC4(CCS(=O)(=O)CC4)C3)nc2CC2CCCCC2)c1Cl (centres unmarked)
Result: 5.9/6.7/6.7

====

I'd be grateful if you could share measured pIC50 (REN) for these entries.
- Experimental System: RORγ (Homo sapiens)
- Protocol Notes: RORγ Gal4 Reporter Gene Assay
- Type: cell-based

CC(C)(C)NS(=O)(=O)c1ccc(-c2nc(C(=O)NC34CCC(C(=O)O)(CC3)CC4)oc2CC2CCCCC2)c2ccccc12 [Example 103/1]: 6.2/7.4/7.4

Field: next molecule
Request: Returns the measured pIC50 (REN) for the input molecule. Input: CC(C)(C)NS(=O)(=O)c1ccc(-c2sc(C(=O)NCC3(C(N)=O)CCOCC3)nc2CC2CCCCC2)cc1C(C)(C)C [Example 6/1]
Result: 6.5/7.5/7.7

Each recorded value in this set is attributed to patent US10301272B2.
